experimentNotes: self-splicing fitness, log relative to wild type (ln ratio); higher = more splicing; Tetrahymena group I intron in knt gene, E. coli kanamycin selection, DiMSum; sequences stand for … in CUCUCU…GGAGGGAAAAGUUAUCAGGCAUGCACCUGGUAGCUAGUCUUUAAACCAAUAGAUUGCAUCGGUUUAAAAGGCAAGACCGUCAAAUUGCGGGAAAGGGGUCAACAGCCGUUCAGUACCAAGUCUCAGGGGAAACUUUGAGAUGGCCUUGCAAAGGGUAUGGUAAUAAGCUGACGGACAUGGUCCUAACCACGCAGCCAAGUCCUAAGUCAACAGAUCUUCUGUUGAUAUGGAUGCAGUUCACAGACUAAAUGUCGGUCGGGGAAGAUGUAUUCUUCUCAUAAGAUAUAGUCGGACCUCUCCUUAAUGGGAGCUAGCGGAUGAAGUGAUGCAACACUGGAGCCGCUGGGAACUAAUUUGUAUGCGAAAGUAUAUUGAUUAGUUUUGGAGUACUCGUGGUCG;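 further: selection with 25 µg/mL kanamycin versus none on LB agar overnight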
appliedConditions: 30 °C
endpointLabel: self-splicing fitness (ln)
In your answer, state the number alone without any accompanying words.

Specify reported self-splicing fitness (ln) for the sequence shown: AAAUAGCAAUAUUACGGGGG
-2.94

Output self-splicing fitness (ln) of CUGUAGCAAUAUUACGACUG
-0.156

Entry GACCAGCAAUAUUACGGGAG needs its self-splicing fitness (ln) filled in; supply it.
-0.677

Please report the measured self-splicing fitness (ln) for UCAUAGCAAUAUUACGCGGG
-2.79

Find the measured self-splicing fitness (ln) of UCUGAGCAAUAUUACGUUUG and report it.
-4.82

For the sequence UUUAAGCAAUAUUACGUGCG , give its reported self-splicing fitness (ln).
-0.659

Item UGAUAGCAAUAUUACGUGGA : provide self-splicing fitness (ln)
-3.45

Identify self-splicing fitness (ln) associated with the sequence UUCAAGCAAUAUUACGCGCC
-0.923
